Exercise: for every item that follows, state its recorded pIC50.
- tested-target: Cannabinoid CB2 Receptor (Homo sapiens)
- Construct: expressed in transfected cells
- Sequence (P34972 whole entry): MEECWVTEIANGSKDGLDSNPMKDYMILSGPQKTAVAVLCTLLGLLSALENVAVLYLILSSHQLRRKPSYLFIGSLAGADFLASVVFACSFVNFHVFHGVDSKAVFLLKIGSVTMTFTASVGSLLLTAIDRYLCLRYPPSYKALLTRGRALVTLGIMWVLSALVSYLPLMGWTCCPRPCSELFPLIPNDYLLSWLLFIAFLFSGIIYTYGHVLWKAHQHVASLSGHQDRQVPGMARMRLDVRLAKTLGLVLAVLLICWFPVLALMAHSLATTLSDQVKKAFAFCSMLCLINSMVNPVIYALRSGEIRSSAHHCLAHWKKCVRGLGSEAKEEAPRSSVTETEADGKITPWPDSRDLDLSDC
- method-summary: Binding assay for CB2 agonists or inverse agonists (radioligand competition, membranes of transfected SK-N-MC cells)
Units for pIC50: none; it is -log10 of a concentration expressed in mol/L.

-- ask Please tell me: pIC50 of CC(C)(C)OC(=O)N1CCc2c(c(C(=O)NC3C4(C)CCC(C4)C3(C)C)nn2-c2ccccc2)C1 (stereo not drawn) , system Cannabinoid CB2 Receptor (Homo sapiens)?
-- reply 7.00

-- ask Give Cannabinoid CB2 Receptor (Homo sapiens) pIC50 for CCC(=O)N1CCc2c(c(C(=O)NC3C4(C)CCC(C4)C3(C)C)nn2Cc2ccccc2)C1 (stereo not drawn)
-- reply 7.70

-- ask Find the measured pIC50: item CC12CCC(C1)C(C)(C)C2NC(=O)c1nn(C2CCCCC2)c2c1CN(C(=O)OCc1ccccc1)CC2 (stereo not drawn) , target or system Cannabinoid CB2 Receptor (Homo sapiens).
-- reply 7.05

-- ask Field: pIC50 (Cannabinoid CB2 Receptor (Homo sapiens)). Entry: CC(C)(C)OC(=O)N1CCc2c(c(C(=O)N[C@H]3C4(C)CCC(C4)C3(C)C)nn2Cc2ccccc2)C1 (stereo partly drawn)
-- reply 7.70

-- ask Quick check: pIC50 on Cannabinoid CB2 Receptor (Homo sapiens), item CC(C)(C)OC(=O)N1CCc2c(c(C(=O)NC3C4(C)CCC(C4)C3(C)C)nn2C2CCCCC2)C1 (stereo not drawn) ?
-- reply 8.00

-- ask Give pIC50 (Cannabinoid CB2 Receptor (Homo sapiens)) of the following molecule: CN(C)S(=O)(=O)N1CCc2c(c(C(=O)NC3C4(C)CCC(C4)C3(C)C)nn2C2CCCCC2)C1 (stereo not drawn)
-- reply 6.05

-- ask Hi! What's the reported pIC50 for CCC(=O)N1CCc2c(c(C(=O)NC3C4(C)CCC(C4)C3(C)C)nn2C2CCCCC2)C1 (stereo not drawn) on Cannabinoid CB2 Receptor (Homo sapiens)?
-- reply 8.00

-- ask Form entry - test system: Cannabinoid CB2 Receptor (Homo sapiens); read-out: pIC50; molecule: CC(=O)N1CCc2c(c(C(=O)NC3C4(C)CCC(C4)C3(C)C)nn2-c2ccccc2)C1 (stereo not drawn)
-- reply 7.00

-- ask Query pIC50 on Cannabinoid CB2 Receptor (Homo sapiens) for COC(=O)N1CCc2c(c(C(=O)NC3C4(C)CCC(C4)C3(C)C)nn2C2CCCCC2)C1 (stereo not drawn)
-- reply 7.05

-- ask Item CC(=O)N1CCc2c(c(C(=O)NC3C4(C)CCC(C4)C3(C)C)nn2C2CCCCC2)C1 (stereo not drawn) with Cannabinoid CB2 Receptor (Homo sapiens) - pIC50?
-- reply 7.40

-- ask Kindly state the measured pIC50 obtained for CC(=O)N1CCc2c(c(C(=O)NC3C4(C)CCC(C4)C3(C)C)nn2Cc2ccccc2)C1 (stereo not drawn) with Cannabinoid CB2 Receptor (Homo sapiens).
-- reply 7.10

-- ask Missing value: pIC50, Cannabinoid CB2 Receptor (Homo sapiens), entry CCOC(=O)N1CCc2c(c(C(=O)NC3C4(C)CCC(C4)C3(C)C)nn2Cc2ccccc2)C1 (stereo not drawn) . Fill in?
-- reply 8.52

-- ask Give Cannabinoid CB2 Receptor (Homo sapiens) pIC50 for Cc1ccc(S(=O)(=O)N2CCc3c(c(C(=O)NC4C5(C)CCC(C5)C4(C)C)nn3C3CCCCC3)C2)cc1 (stereo not drawn)
-- reply 7.70

-- ask Cannabinoid CB2 Receptor (Homo sapiens) / pIC50 / COC(=O)N1CCc2c(c(C(=O)NC3C4(C)CCC(C4)C3(C)C)nn2Cc2ccccc2)C1 (stereo not drawn) : value?
-- reply 8.70

-- ask Query the reported pIC50 for Cannabinoid CB2 Receptor (Homo sapiens); item: CC12CCC(C1)C(C)(C)[C@H]2NC(=O)c1nn(Cc2ccccc2)c2c1CNCC2 (stereo partly drawn)
-- reply 6.30

-- ask Lookup: pIC50 / Cannabinoid CB2 Receptor (Homo sapiens) / COC(=O)N1CCc2c(c(C(=O)NC3C4(C)CCC(C4)C3(C)C)nn2-c2ccccc2)C1 (stereo not drawn)
-- reply 7.05

-- ask Report pIC50 for CCOC(=O)N1CCc2c(c(C(=O)NC3C4(C)CCC(C4)C3(C)C)nn2-c2ccccc2)C1 (stereo not drawn) tested on Cannabinoid CB2 Receptor (Homo sapiens).
-- reply 7.10

-- ask # get_value(readout= pIC50, system= Cannabinoid CB2 Receptor (Homo sapiens)) for CC12CCC(C1)C(C)(C)C2NC(=O)c1nn(C2CCCCC2)c2c1CN(S(C)(=O)=O)CC2 (stereo not drawn)
-- reply 6.52

-- ask // lookup pIC50 | system=Cannabinoid CB2 Receptor (Homo sapiens) | key= CCOC(=O)N1CCc2c(c(C(=O)NC3C4(C)CCC(C4)C3(C)C)nn2C2CCCCC2)C1 (stereo not drawn)
-- reply 7.70

-- ask Requested read-out pIC50, target or system Cannabinoid CB2 Receptor (Homo sapiens), entry CC12CCC(C1)C(C)(C)C2NC(=O)c1nn(Cc2ccccc2)c2c1CN(C(=O)OCc1ccccc1)CC2 (stereo not drawn)
-- reply 8.70

-- ask Lookup: pIC50 / Cannabinoid CB2 Receptor (Homo sapiens) / Cc1ccc(S(=O)(=O)N2CCc3c(c(C(=O)NC4C5(C)CCC(C5)C4(C)C)nn3Cc3ccccc3)C2)cc1 (stereo not drawn)
-- reply 7.52

* * *

- tested-target: Cannabinoid CB1 Receptor (Homo sapiens, UniProt P21554)
- Construct: expressed in transfected cells
- Sequence (P21554 whole entry): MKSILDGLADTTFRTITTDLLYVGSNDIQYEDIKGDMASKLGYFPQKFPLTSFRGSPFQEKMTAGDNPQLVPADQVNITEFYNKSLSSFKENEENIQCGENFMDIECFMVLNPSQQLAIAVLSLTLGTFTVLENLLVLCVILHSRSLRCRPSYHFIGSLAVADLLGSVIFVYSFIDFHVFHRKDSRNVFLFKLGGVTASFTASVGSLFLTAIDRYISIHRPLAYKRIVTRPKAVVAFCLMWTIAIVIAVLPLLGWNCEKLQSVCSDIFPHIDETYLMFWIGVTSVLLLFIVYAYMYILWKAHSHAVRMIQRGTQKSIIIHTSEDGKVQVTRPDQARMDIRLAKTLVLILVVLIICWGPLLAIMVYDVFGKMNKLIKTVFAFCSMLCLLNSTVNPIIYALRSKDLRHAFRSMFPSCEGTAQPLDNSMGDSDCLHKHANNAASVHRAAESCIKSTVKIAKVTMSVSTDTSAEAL
- method-summary: Binding assay for CB1 agonists or inverse agonists (radioligand competition, membranes of transfected SK-N-MC cells)
- particulars: human CB1, SK-N-MC cell membranes; calculated by linear regression from percent inhibition at various concentrations; read-out: Cannabinoid CB1 Receptor Binding IC50
Kindly state pIC50 for each of the entries shown.
Note: pIC50 values are expressed as the negative base-10 logarithm of concentration in M.

-- ask Record request: pIC50 value, item CC(C)(C)OC(=O)N1CCc2c(c(C(=O)N[C@H]3C4(C)CCC(C4)C3(C)C)nn2Cc2ccccc2)C1 (stereo partly shown) [Cpd 104]
-- reply 6.30

-- ask Look up pIC50: Cc1ccc(S(=O)(=O)N2CCc3c(c(C(=O)NC4C5(C)CCC(C5)C4(C)C)nn3Cc3ccccc3)C2)cc1 (stereo not shown) [Cpd 125]
-- reply 6.70

-- ask Which measured pIC50 value corresponds to CCOC(=O)CN1CCc2c(c(C(=O)NC3C4(C)CCC(C4)C3(C)C)nn2C2CCCCC2)C1 (stereo not shown) [Cpd 126] ?
-- reply 5.92

-- ask Look at this compound and give its reported pIC50. COC(=O)CN1CCc2c(c(C(=O)NC3C4(C)CCC(C4)C3(C)C)nn2C2CCCCC2)C1 (stereo not shown) [Cpd 128]
-- reply 6.15

* * *

For each of the compounds below, state its EC50.
- tested-target: CB1 receptor (human) (Homo sapiens, UniProt P21554)
- Sequence (P21554 whole entry): as the sequence (P21554 whole entry) above
- method-summary: cell-based
Report as a plain number; the unit nM is understood.

-- ask Please look up its EC50: "CS(=O)(=O)N1C/C(=C\c2ccc(F)cc2)c2c(c(C(=O)NN3CCCCC3)nn2-c2ccc(Cl)cc2Cl)C1"
-- reply 9

-- ask Field request: EC50 | item: "COc1ccc(/C=C2\CN(S(C)(=O)=O)Cc3c(C(=O)NN4CCCCC4)nn(-c4ccc(Cl)cc4Cl)c32)cc1"
-- reply 5

-- ask What does the record list as EC50 for "COc1ccc(/C=C2\CN(C=O)Cc3c(C(=O)N[C@H](C)c4ccccc4)nn(-c4ccc(Cl)cc4Cl)c32)cc1" ?
-- reply 0.1

-- ask Field request: EC50 | item: "COc1ccc(/C=C2\CNCc3c(C(=O)N[C@H](C)c4ccccc4)nn(-c4ccc(Cl)cc4Cl)c32)cc1"
-- reply 5

-- ask Find the recorded EC50 belonging to "CCOC(=O)CN1C/C(=C\c2ccc(F)cc2)c2c(c(C(=O)N[C@H](C)c3ccccc3)nn2-c2ccc(Cl)cc2Cl)C1" and report it.
-- reply 0.6

-- ask Using the record for "C[C@@H](NC(=O)c1nn(-c2ccc(Cl)cc2)c2c1CN(S(C)(=O)=O)C/C2=C\c1ccc(F)cc1)c1ccccc1" , report its EC50.
-- reply 1

-- ask Please give the measured EC50 for this compound: "CC(=O)N1C/C(=C\c2ccc(F)cc2)c2c(c(C(=O)N[C@H](C)c3ccccc3)nn2-c2ccc(Cl)cc2Cl)C1"
-- reply 3

* * *

- tested-target: Cannabinoid CB1 Receptor (Homo sapiens)
- Construct: expressed in transfected cells
- method-summary: Binding assay for CB1 agonists or inverse agonists (radioligand competition, membranes of transfected SK-N-MC cells)
Values of IC50 strictly less than 9 nM map to Fulfilled, and values of at least 9 nM map to Not fulfilled.

-- ask Please indicate whether the reported IC50 of "COc1ccc(/C=C2\CN(C(=O)OC(C)(C)C)Cc3c(C(=O)N[C@H](C)c4ccccn4)nn(-c4ccc(Cl)cc4Cl)c32)cc1" is strictly below 9 nM.
-- reply Not fulfilled

-- ask Determine if CC12CCC(C1)C(C)(C)C2NC(=O)c1nn(Cc2ccccc2)c2c1CN(C(=O)OCc1ccccc1)CC2 (stereo not shown) shows IC50 strictly lower than 9 nM.
-- reply Not fulfilled

-- ask Criterion: IC50 strictly below 9 nM. Is it met by "COc1ccc(/C=C2\CN(C=O)Cc3c(C(=O)N[C@H](C)c4ccccc4)nn(-c4ccc(Cl)cc4Cl)c32)cc1" ?
-- reply Fulfilled

-- ask Please let me know if CCOC(=O)N1CCc2c(c(C(=O)NC3C4(C)CCC(C4)C3(C)C)nn2-c2ccccc2)C1 (stereo not shown) shows IC50 below 9 nM.
-- reply Not fulfilled

-- ask Strictly below 9 nM in IC50? "C[C@@H](NC(=O)c1nn(-c2ccc(Cl)cc2Cl)c2c1CN(C=O)C/C2=C\c1ccc(F)cc1)c1ccccc1"
-- reply Fulfilled

-- ask Determine whether this compound shows IC50 lower than 9 nM (ties excluded): "CCNC(=O)N1C/C(=C\c2ccc(F)cc2)c2c(c(C(=O)N[C@H](C)c3ccccc3)nn2-c2ccc(Cl)cc2Cl)C1"
-- reply Fulfilled

-- ask # TODO verify IC50 < 9 nM strictly for this compound: "COc1ccc(/C=C2\CN(C(=O)OC(C)(C)C)Cc3c(C(=O)NN4CCCCC4)nn(-c4ccc(Cl)cc4Cl)c32)cc1"
-- reply Not fulfilled

-- ask Hi there! Is IC50 for "CC(=O)N1C/C(=C\c2ccc(F)cc2)c2c(c(C(=O)N[C@H](C)C3CCCCC3)nn2-c2ccc(Cl)cc2Cl)C1" below 9 nM, do you know?
-- reply Fulfilled

-- ask Determine whether this compound shows IC50 lower than 9 nM (ties excluded): "COc1ccc(/C=C2\CNCc3c(C(=O)NN4CCCCC4)nn(-c4ccc(Cl)cc4Cl)c32)cc1"
-- reply Not fulfilled

Source listed as patent US20060089378A1.
